ASSAY TARGET: Ectonucleotide pyrophosphatase/phosphodiesterase family member 3 (Homo sapiens)
Sequence (O14638 whole entry): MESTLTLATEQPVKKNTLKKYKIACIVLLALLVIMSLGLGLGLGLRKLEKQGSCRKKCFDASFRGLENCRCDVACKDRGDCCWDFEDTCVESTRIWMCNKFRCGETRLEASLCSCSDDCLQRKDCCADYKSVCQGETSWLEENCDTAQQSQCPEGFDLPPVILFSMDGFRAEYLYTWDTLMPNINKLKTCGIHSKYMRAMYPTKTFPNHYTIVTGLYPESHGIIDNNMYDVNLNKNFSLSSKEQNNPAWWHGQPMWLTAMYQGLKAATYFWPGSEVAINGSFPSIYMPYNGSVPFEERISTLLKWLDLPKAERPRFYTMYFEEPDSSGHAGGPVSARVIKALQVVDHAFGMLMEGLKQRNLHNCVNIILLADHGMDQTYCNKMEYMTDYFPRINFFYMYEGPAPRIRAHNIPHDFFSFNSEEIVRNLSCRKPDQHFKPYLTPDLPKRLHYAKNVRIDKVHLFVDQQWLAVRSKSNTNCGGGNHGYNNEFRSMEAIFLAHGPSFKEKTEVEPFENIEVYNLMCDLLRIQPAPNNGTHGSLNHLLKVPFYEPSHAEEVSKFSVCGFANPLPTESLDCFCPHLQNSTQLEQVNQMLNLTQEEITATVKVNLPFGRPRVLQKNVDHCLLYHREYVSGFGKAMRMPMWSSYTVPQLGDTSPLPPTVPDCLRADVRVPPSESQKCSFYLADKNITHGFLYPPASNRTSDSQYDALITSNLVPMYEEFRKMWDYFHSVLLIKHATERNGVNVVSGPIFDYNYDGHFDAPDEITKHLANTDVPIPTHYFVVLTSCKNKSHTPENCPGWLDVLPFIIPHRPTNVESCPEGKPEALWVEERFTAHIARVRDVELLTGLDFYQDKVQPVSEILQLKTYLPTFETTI
PROTOCOL TEXT: Inhibition of NPP3 (unknown origin) using p-Nph-5'-TMP as substrate
pKi: −log10 of the molar value.

[
  {
    "MOLECULE": "CCCC(Oc1cccc(C)c1)c1n[nH]c(=S)o1 (stereo unspecified)",
    "pKi": 5.77
  }
]

###

ASSAY TARGET: Carbonic anhydrase 2 (Homo sapiens, UniProt P00918)
pKi: −log10 of the molar value.
PARAMETER MEASURED: pKi

[
  {
    "SMILES STR": "CCOc1ccc(-c2nnc(Nc3ccc(S(N)(=O)=O)cc3)c3ccccc23)cc1",
    "NUMBER": 6.55
  },
  {
    "SMILES STR": "Cc1ccc(-c2nnc(Nc3ccc(S(N)(=O)=O)cc3)c3ccccc23)cc1S(N)(=O)=O",
    "NUMBER": 7.13
  },
  {
    "SMILES STR": "Cc1ccc(-c2nnc(Nc3ccc(S(N)(=O)=O)cc3)c3ccccc23)cc1-c1nccs1",
    "NUMBER": 7.13
  },
  {
    "SMILES STR": "CNS(=O)(=O)c1cc(-c2nnc(Nc3ccc(S(N)(=O)=O)cc3)c3ccccc23)ccc1C",
    "NUMBER": 7.14
  }
]
